target: SARS-COV-2 RBD extracellular domain expressed with a C-terminal mouse IgG2a (SARS-CoV-2); test: SPR Biacore, mAb captured via anti-hFc, 25 C
value kind: t½ (h)
# value in h; strip the unit string

Some entries whose results are on file:
binder	display unit	t½
mAb10998 (antibody, V domains shown) VH: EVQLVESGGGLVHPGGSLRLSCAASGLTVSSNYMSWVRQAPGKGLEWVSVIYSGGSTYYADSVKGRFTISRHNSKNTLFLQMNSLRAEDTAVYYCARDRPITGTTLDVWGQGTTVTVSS VL: DIQMTQSPSSLFASVGDRVTITCRASQSISSYLNWYQQKPGKAPKLLIYAASSLQSGVPSRFSGSGSGTDFTLTISSLQPEDFAFYYCQQTYSTPPITFGQGTRLEIKR	h	0.0533
mAb10964 (antibody, V domains shown) VH: QVQLQESGPGLVKPSETLSLTCTVSGGSINNYYWIWIRQPPGKGLEWIGYIYHSGSTNYNPSLKSRVTISVDTSKNQFSLKVSSVTAADTAVYYCANMVRGVYEDDYWGQGTLVTVSS VL: DIQMTQSPSSLSASVGDRVTITCRASQSISNYLNWYQQKPGKAPKLLIFAASSLRSGVPSRFSGSGSGTDFTLTISSLHPEDFATYYCQQNYNTPLTFGPGTKVDIKR	h	5.22

# evaluate next
Req: Fill in the blank: the reported t½ of mAb11008 (antibody, V domains shown) VH: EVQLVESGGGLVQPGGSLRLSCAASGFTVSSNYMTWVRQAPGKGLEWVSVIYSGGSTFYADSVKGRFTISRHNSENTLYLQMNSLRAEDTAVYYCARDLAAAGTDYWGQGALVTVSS VL: DIQLTQSPSFLSASVGDRVTITCWASQGISSYLAWYQQKPGKAPKLLIYAASTLQSGVPSRFSGSGSGTEFTLTISSLQPDDFATYYCQHLNSYLYTFGQGTKLEIKR is ____.
Resp: 1
